The entries below come with measured abundance fitness values attached.
B1: CD2-associated protein, residues 271 to 331; numbered along this chain, Q9Y5K6 (parent)
chain: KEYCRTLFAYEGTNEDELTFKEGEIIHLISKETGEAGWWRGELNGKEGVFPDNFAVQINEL

Variants of: B1
experimental-protocol: abundance fitness (aPCA) (normalised: wild type 0, dead -1); higher = more abundant; growth selection in yeast, the domain comes from the species named
settings: Homo sapiens
quantity-measured: abundance fitness

{"columns": ["change", "obs-value"],
 "data": [
  ["F50I", -0.822],
  ["I26D", -0.7],
  ["N14I", -0.202],
  ["T13Q", 0.122],
  ["T33K", -0.332],
  ["E22T", -0.25],
  ["L28D", -0.82],
  ["E17D", -0.213],
  ["A36P", 0.114],
  ["Y3L", -0.131],
  ["E11Y", -0.19],
  ["H27T", 0.04],
  ["G34A", -0.216],
  ["E42W", -0.313],
  ["G34D", -0.031],
  ["G48S", -0.843],
  ["G45V", -0.845],
  ["D16M", -0.194],
  ["L61Q", 0.113],
  ["V49T", -0.129],
  ["G12L", -0.865],
  ["E24F", -0.993]
]}

Cited source: the Human Domainome abundance scans (Beltran et al. 2025)
